These entries and their values trace back to PubChem BioAssay.

protocolDescription: S. pombe growth modifiers, basal conditions – strain 972, OD600, 24 h, no modulator, primary screen (AID 1090);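 note: basal condition with compound alone and no growth modifier present; test concentration not given here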
conditionNotes: S. pombe 972 growth, higher = more signal, called active from +8 up or from −8 down
Classify by measured z-score: Fulfilled if it is equal to or exceeds -1, Not fulfilled if it is smaller.

* CN(C)c1ccc(C(O)C2C=CC3C(=O)N(Cc4ccccc4)C(=O)C3N2n2cnnc2)cc1 (centres undefined) | Fulfilled
* C=CCOC(=O)[C@@H]1[C@H]2C(=O)O[C@H](c3ccccc3)[C@H](c3ccccc3)N2[C@H](c2ccc(OCCOC(=O)[C@H]3C[C@H]4C(=O)N[C@@H](CCCCN(C)C)C(=O)N4[C@H]3c3ccc(O)cc3)cc2)[C@@]12C(=O)Nc1ccc(I)cc12 | Not fulfilled
* CCCCCC1=C2CNC(Cc3ccccc3)(C(=O)OC)C=C2C(C)C1=O (centres undefined) | Fulfilled
* [N-]=[N+]=Nc1ccccc1[C@H]1OC(c2ccc(OCCCO)cc2)=N[C@@]1(Cc1ccccc1)C(=O)NCC(O)CO (some centres undefined) | Not fulfilled
* C=CCC(OC(C)=O)[C@@H]1[C@@H](N(Cc2cccc3ccccc23)C(=O)Cc2ccc(OC)cc2)c2cc(OCCCO)ccc2N1C(=O)Cc1ccc2ccccc2c1 (some centres undefined) | Fulfilled
* O=C1O[C@H](Cc2ccccc2)[C@@H]2[C@H]3C=CCCC=C3CN2[C@H]1Cc1ccc(O)cc1 | Not fulfilled
* O=C1O[C@@H](c2ccccc2)[C@@H](c2ccccc2)N2[C@@H](c3ccc(OCCO)cc3)[C@]3(C(=O)Nc4ccc(C#CC5(O)CCCCCC5)cc43)[C@@H](C(=O)O)[C@H]12 | Fulfilled
* COc1ccc([Si](C)(C)[C@@H]2[C@@H](CC(=O)N(CCO)Cc3ccccc3)O[C@]3(C(=O)N(Cc4ccc(I)cc4)c4ccccc43)[C@H]2C)cc1 | Fulfilled
* COc1ccc([Si](C)(C)[C@@H]2[C@@H](CC(=O)N3CCC[C@H]3CO)O[C@]3(C(=O)N(Cc4cccc(N5CCCCC5=O)c4)c4ccccc43)[C@H]2C)cc1 | Fulfilled
* [N-]=[N+]=NCc1ccccc1[C@@H]1OC(c2ccc(OCCCO)cc2)=N[C@]1(Cc1ccccc1N=[N+]=[N-])C(=O)O | Not fulfilled
* COC(=O)C1(Cc2ccccc2)C=C2C(=C(C)C(=O)C2C)CN1 (centres undefined) | Fulfilled
* CC(C)(C)N1CC=CC23O[C@@H]4C=CCCOC(=O)C4[C@H]2C(=O)N(CCCCCCO)[C@@H]3C1=O (some centres undefined) | Fulfilled
* CCCCCCc1nc(-c2ccc(-c3ccc(Cl)c(Cl)c3)o2)cc2c1[Si](C(C)C)(C(C)C)OC2 | Not fulfilled
* COC(=O)C(CC#Cc1ccc2c(c1)[C@]1(C(=O)N2)[C@H](C(=O)NC[C@H](O)c2ccccc2)[C@H]2C(=O)O[C@H](c3ccccc3)[C@H](c3ccccc3)N2[C@@H]1c1ccccc1OCCO)C(=O)OC | Fulfilled

* * *

System: Chordin-like protein 2 (CHRDL2)
protocolDescription: compounds binding chordin-like 2 – biochemical, small-molecule microarray, 635 nm fluorescence, primary screen (AID 1126);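 note: printed compound slides probed with Chrdl2 protein at 4 µg/mL for 1 h at 4 C; score merges 667 nm emission intensity with signal to noise over three replicate slides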
conditionNotes: fluorescence 635 nm, higher = more signal
Decide by composite z-score: equal to or exceeding -0.07 means MET, less means NOT MET.

• CC(C)=CCCC=C(C)C(O)C1C=CC2C(=O)N(c3ccccc3)C(=O)C2N1Nc1ccc(C#N)cc1 (stereo not drawn) = MET
• CC(C)C(O)C1C=CC2C(=O)NC(=O)C2N1Nc1ccccn1 (stereo not drawn) = NOT MET
• C=CCC(OC(C)=O)[C@@H]1[C@@H](N(Cc2ccc(-c3ccccc3)cc2)C(=O)c2cccc3ccccc23)c2cc(OCCCO)ccc2N1C(=O)Cc1ccc(OC)cc1 (stereo partly drawn) = MET
• CCOC(=O)C1=CC[C@@H](c2ccc(OC)cc2)N(S(=O)(=O)c2ccc(C)cc2)[C@H]1CC = NOT MET
• COC(=O)[C@@]1(Cc2ccc(OC)cc2)[C@H]2c3cc(C(=O)N4CCCC4)n(Cc4c(CO)[nH]cc(C)c4=O)c3C[C@H]2CN1C(=O)c1ccccc1 = NOT MET
• CCC(CC)C(O)C1C=CC2C(=O)N(c3ccccc3)C(=O)C2N1Nc1ccccc1F (stereo not drawn) = MET
• COC(=O)[C@H](Cc1ccc(O)cc1)N[C@@H](/C=C/C1CC1)[C@H](O)Cc1ccccc1 = MET

* * *

Property: z-score; scope: individual compounds
protocolDescription: blockers of DNA damage checkpoint Chk1 activation – imaging, HeLa, hydroxyurea, phospho-Chk1 nuclear intensity, primary screen (AID 1187); note: test concentration not given here
conditionNotes: hydroxyurea-induced phospho-Chk1 immunofluorescence imaging, higher = more signal
readoutKind: z-score

• CC(C)NC(=O)[C@@]1(c2ccc([N+](=O)[O-])cc2)CC(=O)N(CC23CC4CC(CC(C4)C2)C3)[C@@H]1c1ccc(CO)cc1 = 0.412
• CN(C)c1ccc(C(O)C2C=CC3C(=O)N(Cc4ccccc4)C(=O)C3N2n2cnnc2)cc1 (centres undefined) = -1.58
• C=CCC(OC(C)=O)[C@@H]1[C@@H](N(Cc2ccc(-c3cccc(C(F)(F)F)c3)o2)C(=O)Cc2ccc(F)cc2)c2cc(OCCCO)ccc2N1C(=O)Cc1ccc2ccccc2c1 (some centres undefined) = 0.0472
• C=C(/C(=C/C[C@@H](OC(C)=O)c1cccc(OCCO)c1)c1cnc2ccccc2c1)C(C)C = 0.0865

* * *

protocolDescription: resazurin metabolic signal in A549 cells – cell-based, resazurin fluorescence, 24 h, PK04 Diversity Set, profiling panel (AID 1171); note: test concentration not given here
conditionNotes: A549 viability, higher = more signal, called active from +8 up or from −8 down
readoutKind: z-score

* CCN(CC)c1ccc(N2CC=CC34O[C@@H]5C=CCCOC(=O)C5[C@H]3C(=O)N(C(C)CO)[C@@H]4C2=O)cc1 (some centres undefined) | 0.586
* CC1CC/C=C\[C@H]2OC34C=CCN(Cn5nnc6ccccc65)C(=O)[C@H]3N(CCCCCCO)C(=O)[C@@H]4C2C(=O)O1 (some centres undefined) | 0.0188
* C=C(COC)C(=O)CC[C@@H](OC(C)=O)c1ccccc1OCCO | 0.837
* COCCOC(=O)N1C(=O)[C@@]2(c3cc(C#CCC(C(=O)OC)C(=O)OC)ccc31)[C@H](c1ccc(O)cc1)N1[C@H](c3ccccc3)[C@H](c3ccccc3)OC(=O)[C@H]1[C@@H]2C(=O)Nc1nc2ccccc2s1 | 0.066
* CC(C)N1C(=O)c2ccccc2[C@](C)(C(=O)NCC(F)(F)F)[C@@H]1c1ccc(CO)cc1 | 0.87
* COCCn1c(C(=O)N(C)C)cc2c1C[C@H]1CN(C(=O)c3ccccc3)[C@@](Cc3ccc(OC)cc3)(C(=O)OC)[C@@H]21 | -0.437
* CCOC(=O)C[C@H]1[C@H](OC(=O)c2ccccc2-c2ccccc2)[C@@H](NC(=O)C2CCCCC2)c2cc(OCCCO)ccc2N1C(=O)c1ccc2ccccc2n1 | -0.417
* C=C(CCCC)/C(=C/C[C@H](OC(=O)c1ccncc1)c1ccccc1OCCO)c1cc(C(=O)OC)ccc1OC | 0.613
* C=CCOC(=O)[C@H]1[C@@H]2C(=O)O[C@@H](c3ccccc3)[C@@H](c3ccccc3)N2[C@@H](c2ccc(OCCOC(=O)[C@@H]3C[C@@H]4C(=O)N[C@@H](CCCC[N+](C)(C)C)C(=O)N4[C@@H]3c3ccc(O)cc3)cc2)[C@]12C(=O)Nc1ccc(I)cc12 | 0.281
* O=C1O[C@H](Cc2ccccc2)[C@@H]2[C@H]3C=CCCC=C3CN2[C@H]1Cc1ccc(O)cc1 | 0.745
* C[N+](C)(C)CCCCNC(=O)[C@H]1C[C@H]2C(=O)N[C@@H](Cc3ccccc3)C(=O)N2[C@H]1c1cccc(OCCO)c1 | -0.967
* O=C1[C@H]2C=C(I)[C@H](C[C@@H]2c2ccccc2)[C@@]12CO2 | -0.122
* O=C1O[C@@H](c2ccccc2)[C@@H](c2ccccc2)N2[C@@H](c3ccc(OCCO)cc3)[C@]3(C(=O)Nc4ccc(C#CCCO)cc43)[C@@H](C(=O)O)[C@H]12 | -0.384
* NC(=O)N1C(=O)C2C(C1=O)C1C=C(CCCO)C2C(C2CC2)N1Cc1sc2ccccc2c1Cl (centres undefined) | 1.09

* * *

Reported z-score values for the following compounds.
testedOn: Luciferin 4-monooxygenase (Photinus pyralis)
protocolDescription: inhibition of purified Photinus pyralis luciferase – biochemical, luminescence, purified enzyme, 2006 set, primary screen (AID 1141);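 note: cell-free assay with purified firefly luciferase at 100 ng per well in PBS; test concentration not given here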
conditionNotes: purified firefly luciferase, SteadyGlo luminescence, 30 min; higher = more signal, called active from +8 up or from −8 down
readoutKind: z-score

• CCCCC(O)C1C=CC2C(=O)N(c3ccccc3)C(=O)C2N1Nc1ccccc1 (centres undefined) = 0.438
• C#CCN1[C@@H](Cc2ccccc2)C(=O)O[C@H](Cc2ccccc2)[C@@H]1/C=C/C1CC1 = -0.415
• COC(=O)[C@]1(CCC(=O)OC(C)(C)C)N=C(c2ccc(OCCCO)cc2)O[C@@H]1c1ccccc1N=[N+]=[N-] = -6.42
• CCCCCCc1nc(-c2ccc(-c3ccc(Cl)c(Cl)c3)o2)cc2c1[Si](C(C)C)(C(C)C)OC2 = -5.02
• O=C1O[C@@H](c2ccccc2)[C@@H](c2ccccc2)N2[C@@H](c3ccc(OCCO)cc3)[C@]3(C(=O)Nc4ccc(C#CC5(O)CCCCCC5)cc43)[C@@H](C(=O)Nc3nc4ccccc4s3)[C@H]12 = -2.6
• CCOC(=O)C[C@H]1[C@H](OC(=O)c2ccccc2-c2ccccc2)[C@@H](NC(=O)C2CCCCC2)c2cc(OCCCO)ccc2N1C(=O)c1ccc2ccccc2n1 = 0.595
• CO[C@H]1O[C@H](CO)[C@@H](OC(=O)Nc2ccc3c(c2)OCO3)[C@H](OC(=O)Nc2ccccc2-c2ccccc2)[C@H]1OC(=O)Nc1ccccc1-c1ccccc1 = -1.22
• C[N+](C)(C)CCCCNC(=O)[C@H]1C[C@H]2C(=O)N[C@@H](Cc3ccccc3)C(=O)N2[C@H]1c1cccc(OCCO)c1 = -0.598
• CCOC(=O)C[C@H]1[C@H](OC(=O)c2ccccc2-c2ccccc2)[C@@H](NC(=O)c2ccc3ccccc3c2)c2cc(OCCCO)ccc2N1C(=O)Cc1ccc(OC)cc1 = -0.146
• CCOc1cc(C(O)C2C=CC3C(=O)N(c4ccccc4)C(=O)C3N2Nc2ccccc2F)ccc1O (centres undefined) = -1.38
• C=CCN1C(=O)[C@@]2(O[C@@H](CCn3cc([C@H](O)c4ccccc4)nn3)[C@H]([Si](C)(C)c3ccc(OC)cc3)[C@H]2C)c2cc(N3C(=O)c4cccc5cccc3c45)ccc21 = -0.0152
• CC(=O)NCCCC[C@@H]1NC(=O)[C@H]2C[C@@H](C(=O)NCCCCCCNC(=O)CS)[C@@H](c3cccc(OCCO)c3)N2C1=O = -0.399
• C=CC[C@@]1(C(=O)OC)N=C(c2ccc(OCCCO)cc2)O[C@@H]1c1ccccc1N=[N+]=[N-] = -6.39
• COc1ccc([Si](C)(C)[C@@H]2[C@@H](CC(=O)N3CCC[C@H]3CO)O[C@]3(C(=O)N(Cc4ccc(N5CCOC5=O)cc4)c4ccccc43)[C@H]2C)cc1 = -1.83
